tested on: 941728-121-R-J1-PDC complex spheroid viability; assay: Anticancer human tumor 941728-121-R-J1-PDC patient-derived lung adenocarcinoma cell line growth inhibition [RAS]; conditions: second compound 0.00949 µM; first compound 0.01 µM; active compounds read low
Catalogue of viability, T/C values
Record the value in %, omitting the unit from your answer.

Item C=CC(=O)N1CCN(c2nc(OCC3CCCN3C)nc3c(F)c(-c4nc(N)cc(C)c4C(F)(F)F)c(Cl)cc23)C(C)C1 (centres undefined) + CCn1c(-c2cc(N3CCN(C)CC3)cnc2C(C)OC)c2c3cc(ccc31)-c1csc(n1)CC(NC(=O)C1CC1C)C(=O)N1CCCC(N1)C(=O)OCC(C)(C)C2 has what recorded viability, T/C?
16.4

* * *

Tested on: 941728-121-R-J1-PDC complex spheroid viability
Test: Anticancer human tumor 941728-121-R-J1-PDC cell line growth inhibition [RAS];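 note: spheroids exposed to compounds for 7 days before readout; 100% = DMSO vehicle control viability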
Conditions: second compound 1 µM; first compound 0.00316 µM; active compounds read low
Text: RAS pathway inhibitors in Combinations in Complex Spheroids A high-throughput screen of multi-cell type tumor spheroids was designed to identify active combinations of RAS pathway inhibitors and targeted small molecules. Complex spheroids include a stromal component modeled by human endothelial cells (HUVEC) and fibroblasts modeled by human mesenchymal stem cells (MSCs). […] Compounds. […] If the clinical Cmax for an agent had not been determined, the highest concentration tested was 10 microM. […]
propertyMeasured: viability, T/C (%)
The reply should be a number in %, with the unit left off.

compound	propertyMeasured	measuredValue
CC(C)n1nc(-c2ccc3oc(N)nc3c2)c2c(N)ncnc21 + C#Cc1c(F)ccc2cc(O)cc(-c3ncc4c(N5CC6CCC(C5)N6)nc(OCC56CCCN5CC(F)C6)nc4c3F)c12	viability, T/C	31.3
C=CC(=O)Nc1cc(Nc2nccc(-c3cn(C)c4ccccc34)n2)c(OC)cc1N(C)CCN(C)C + C#Cc1c(F)ccc2cc(O)cc(-c3ncc4c(N5CC6CCC(C5)N6)nc(OCC56CCCN5CC(F)C6)nc4c3F)c12	viability, T/C	35.2
C=CC(=O)N1CCN(c2nc(OCC3CCCN3C)nc3c(F)c(-c4nc(N)cc(C)c4C(F)(F)F)c(Cl)cc23)C(C)C1 (stereo not given) + C#Cc1c(F)ccc2cc(O)cc(-c3ncc4c(N5CC6CCC(C5)N6)nc(OCC56CCCN5CC(F)C6)nc4c3F)c12	viability, T/C	21.3
CCN1CCN(Cc2ccc(Nc3ncc(F)c(-c4cc(F)c5nc(C)n(C(C)C)c5c4)n3)nc2)CC1 + C#Cc1c(F)ccc2cc(O)cc(-c3ncc4c(N5CC6CCC(C5)N6)nc(OCC56CCCN5CC(F)C6)nc4c3F)c12	viability, T/C	38.2

Turning now to a further compound:
Can you look up the measured viability, T/C of Nc1ccn(C2OC(CO)C(O)C2(F)F)c(=O)n1 (stereo not given) + C=CC(=O)N1CCN(c2nc(OCC3CCCN3C)nc3c(F)c(-c4nc(N)cc(C)c4C(F)(F)F)c(Cl)cc23)C(C)C1 for me?
18.9

* * *

Test system: 941728-121-R-J1-PDC complex spheroid viability
Assay: Anticancer human tumor 941728-121-R-J1-PDC cell line growth inhibition [RAS];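 note: spheroids exposed to compounds for 7 days before readout; 100% = DMSO vehicle control viability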
Details: second compound 1 µM; first compound 0.0316 µM; active compounds read low
Source text: RAS pathway inhibitors in Combinations in Complex Spheroids A high-throughput screen of multi-cell type tumor spheroids was designed to identify active combinations of RAS pathway inhibitors and targeted small molecules. Complex spheroids include a stromal component modeled by human endothelial cells (HUVEC) and fibroblasts modeled by human mesenchymal stem cells (MSCs). […] Compounds. […] If the clinical Cmax for an agent had not been determined, the highest concentration tested was 10 microM. […]
propertyMeasured: viability, T/C

These solved cases illustrate the format of a correct answer.
molecule	viability, T/C
CCC(CC)c1cc(NC2CCC(N)C2)n2nccc2n1 (stereo not given) + C=CC(=O)N1CCN(c2nc(OCC3CCCN3C)nc3c(F)c(-c4nc(N)cc(C)c4C(F)(F)F)c(Cl)cc23)C(C)C1	20.6%
Nc1ccn(C2OC(CO)C(O)C2(F)F)c(=O)n1 (stereo not given) + C=CC(=O)N1CCN(c2nc(OCC3CCCN3C)nc3c(F)c(-c4nc(N)cc(C)c4C(F)(F)F)c(Cl)cc23)C(C)C1	15.8%
CCN1CCN(Cc2ccc(Nc3ncc(F)c(-c4cc(F)c5nc(C)n(C(C)C)c5c4)n3)nc2)CC1 + C#Cc1c(F)ccc2cc(O)cc(-c3ncc4c(N5CC6CCC(C5)N6)nc(OCC56CCCN5CC(F)C6)nc4c3F)c12	31.4%
C=CC(=O)Nc1cc(Nc2nccc(-c3cn(C)c4ccccc34)n2)c(OC)cc1N(C)CCN(C)C + C#Cc1c(F)ccc2cc(O)cc(-c3ncc4c(N5CC6CCC(C5)N6)nc(OCC56CCCN5CC(F)C6)nc4c3F)c12	31.6%

API: the following record is the query input.
Report viability, T/C for CC(=O)OC12COC1CC(O)C1(C)C(=O)C(O)C3=C(C)C(OC(=O)C(O)C(NC(=O)OC(C)(C)C)c4ccccc4)CC(O)(C(OC(=O)c4ccccc4)C21)C3(C)C (stereo not given) + C#Cc1c(F)ccc2cc(O)cc(-c3ncc4c(N5CC6CCC(C5)N6)nc(OCC56CCCN5CC(F)C6)nc4c3F)c12 please.
30.6%
